target: HLA-A0201 (Homo sapiens, UniProt P04439, D140Y/D185E/D98H/E176V/E277Q/G131W/G231S/I119V/I121R/I166T/I218V/L300P/L318F/N151K/N90K/P208A/P217A/Q86G/Q94H/R138H/R169H/T345S); construct: expressed in transfected cells; host or cells: HMy2.CIR; assay: cell-based; assay type: binding
pIC50: −log10 of the molar value. Residues, ends and D or L forms follow the SMILES beside them.
Each entry below lists one item and its recorded pIC50 value.

{"columns": ["compound", "pIC50"],
 "data": [
  ["CC(C)C[C@H](N)C(=O)N[C@@H](Cc1ccc(O)cc1)C(=O)N[C@@H](CO)C(=O)N[C@@H](CO)C(=O)N[C@H](C(=O)N[C@H](C(=O)N1CCC[C@H]1C(=O)N[C@@H](CS)C(=O)N[C@@H](Cc1ccccc1)C(=O)O)C(C)C)[C@@H](C)O [Epitope P55] (H-LYSSTVPCF-OH; N-terminus and C-terminus assumed)", "< 4.82"],
  ["CC(C)C[C@H](NC(=O)[C@@H](N)Cc1ccccc1)C(=O)N[C@@H](Cc1c[nH]c2ccccc12)C(=O)N[C@@H](CCC(=O)O)C(=O)N[C@@H](Cc1c[nH]c2ccccc12)C(=O)N[C@@H](C)C(=O)N[C@@H](CO)C(=O)N[C@H](C(=O)N[C@@H](CCCNC(=N)N)C(=O)O)C(C)C [Epitope P78] (H-FLWEWASVR-OH; N-terminus and C-terminus assumed)", "> 5.30"],
  ["CC(C)C[C@H](NC(=O)[C@H](CC(=O)O)NC(=O)[C@@H](NC(=O)[C@@H](NC(=O)[C@@H](N)CO)[C@@H](C)O)[C@@H](C)O)C(=O)N[C@@H](CCC(=O)O)C(=O)N[C@@H](C)C(=O)N[C@@H](Cc1ccc(O)cc1)C(=O)N[C@@H](Cc1ccccc1)C(=O)N[C@@H](CCCCN)C(=O)O [Epitope P18]", "< 4.82"],
  ["CC(C)C[C@H](NC(=O)[C@H](CCCCN)NC(=O)[C@H](Cc1c[nH]cn1)NC(=O)[C@H](CCCNC(=N)N)NC(=O)[C@H](CS)NC(=O)CNC(=O)CNC(=O)[C@H](CC(C)C)NC(=O)[C@@H](N)C(C)C)C(=O)O [Epitope P36] (H-VLGGCRHKL-OH; N-terminus and C-terminus assumed)", "< 4.82"],
  ["CC[C@H](C)[C@H](NC(=O)[C@H](CC(C)C)NC(=O)[C@@H](N)CCCCN)C(=O)NCC(=O)N[C@H](C(=O)N[C@@H](CC(=O)O)C(=O)N[C@@H](CC(N)=O)C(=O)N[C@@H](CO)C(=O)N[C@H](C(=O)O)C(C)C)[C@@H](C)O [Epitope P34] (H-KLIGTDNSV-OH; N-terminus and C-terminus assumed)", "> 5.30"],
  ["CC[C@H](C)[C@H](NC(=O)[C@H](CC(C)C)NC(=O)[C@H](CS)NC(=O)[C@H](CC(C)C)NC(=O)[C@H](Cc1c[nH]cn1)NC(=O)[C@H](Cc1ccccc1)NC(=O)[C@H](CC(C)C)NC(=O)[C@H](CCC(N)=O)NC(=O)[C@@H](N)CCSC)C(=O)O [Epitope P66] (H-MQLFHLCLI-OH; N-terminus and C-terminus assumed)", "> 5.30"],
  ["CC(C)C[C@H](N)C(=O)N[C@@H](Cc1ccc(O)cc1)C(=O)N[C@@H](CO)C(=O)N[C@@H](CO)C(=O)N[C@H](C(=O)N[C@H](C(=O)N1CCC[C@H]1C(=O)N[C@H](C(=O)N[C@@H](Cc1ccccc1)C(=O)O)C(C)C)C(C)C)[C@@H](C)O [Epitope P56] (H-LYSSTVPVF-OH; N-terminus and C-terminus assumed)", "< 4.82"],
  ["CSCC[C@H](NC(=O)[C@H](CC(N)=O)NC(=O)[C@@H](NC(=O)[C@H](CC(N)=O)NC(=O)[C@@H](NC(=O)[C@H](Cc1ccc(O)cc1)NC(=O)[C@@H](N)CO)C(C)C)[C@@H](C)O)C(=O)NCC(=O)N[C@@H](CC(C)C)C(=O)O [Epitope P22] (H-SYVNTNMGL-OH; N-terminus and C-terminus assumed)", "< 4.82"],
  ["CC(C)C[C@H](NC(=O)[C@H](Cc1ccccc1)NC(=O)[C@H](Cc1ccccc1)NC(=O)CNC(=O)[C@H](C)NC(=O)[C@@H](N)CCC(N)=O)C(=O)N[C@@H](CC(C)C)C(=O)N[C@H](C(=O)N[C@@H](CCCNC(=N)N)C(=O)O)[C@@H](C)O [Epitope P41] (H-QAGFFLLTR-OH; N-terminus and C-terminus assumed)", "< 4.82"],
  ["CC(C)C[C@H](NC(=O)[C@H](CC(N)=O)NC(=O)CNC(=O)[C@H](Cc1c[nH]cn1)NC(=O)[C@H](C)NC(=O)[C@H](CC(N)=O)NC(=O)[C@@H](NC(=O)[C@@H](N)[C@@H](C)O)C(C)C)C(=O)N1CCC[C@H]1C(=O)N[C@@H](CCCCN)C(=O)O [Epitope P47] (H-TVNAHGNLPK-OH; N-terminus and C-terminus assumed)", "< 4.82"],
  ["CC[C@H](C)[C@H](NC(=O)[C@H](Cc1c[nH]cn1)NC(=O)[C@H](Cc1ccccc1)NC(=O)[C@@H](N)Cc1c[nH]c2ccccc12)C(=O)N[C@@H](CO)C(=O)N[C@@H](CS)C(=O)N[C@@H](CC(C)C)C(=O)N[C@H](C(=O)N[C@@H](Cc1ccccc1)C(=O)O)[C@@H](C)O [Epitope P52]", "< 4.82"],
  ["CC[C@H](C)[C@H](NC(=O)[C@H](CC(C)C)NC(=O)[C@H](CCCCN)NC(=O)[C@H](C)NC(=O)CNC(=O)[C@H](CO)NC(=O)[C@H](CCCNC(=N)N)NC(=O)[C@H](CO)NC(=O)[C@@H](N)CCCNC(=N)N)C(=O)O [Epitope P89] (H-RSRSGAKLI-OH; N-terminus and C-terminus assumed)", "< 4.82"]
]}

* * *

Listing: inhibition at 5 µM of selected molecules
target: HLA-A2402 (Homo sapiens, UniProt P04439, D101N/D140Y/D185E/E176V/E190D/F33S/G103R/G107R/I119L/I121M/I306V/K335N/L105A/L180Q/L300P/N151K/N90K/Q86E/Q94H/R106L/R138H/R89G/T104I/T345S/V100E/W191G/Y123F); test: cell-based; type: binding; conditions: HLA-A2402 HMy2.CIR cells; competitor peptide 5μM; 24 hours; flow cytometry
Residues, ends and D or L forms follow the SMILES beside them.

{"columns": ["molecule", "inhibition at 5 µM"],
 "data": [
  ["CC(C)C[C@H](NC(=O)[C@@H](N)Cc1ccccc1)C(=O)N1CCC[C@H]1C(=O)N[C@@H](CO)C(=O)N[C@@H](CC(=O)O)C(=O)N[C@@H](Cc1ccccc1)C(=O)N[C@@H](Cc1ccccc1)C(=O)N1CCC[C@H]1C(=O)N[C@@H](CO)C(=O)N[C@H](C(=O)O)C(C)C [Epitope P1]", "10%"],
  ["CC(C)C[C@H](NC(=O)[C@H](CO)NC(=O)[C@H](CC(C)C)NC(=O)[C@@H](N)Cc1c[nH]c2ccccc12)C(=O)N[C@@H](CC(C)C)C(=O)N[C@H](C(=O)N1CCC[C@H]1C(=O)N[C@@H](Cc1ccccc1)C(=O)N[C@H](C(=O)O)C(C)C)C(C)C [Epitope P7]", "0%"],
  ["CC(C)C[C@H](NC(=O)[C@@H](N)Cc1ccccc1)C(=O)N[C@@H](Cc1c[nH]c2ccccc12)C(=O)N[C@@H](CCC(=O)O)C(=O)N[C@@H](Cc1c[nH]c2ccccc12)C(=O)N[C@@H](C)C(=O)N[C@@H](CO)C(=O)N[C@H](C(=O)N[C@@H](CCCNC(=N)N)C(=O)O)C(C)C [Epitope P78] (H-FLWEWASVR-OH; N-terminus and C-terminus assumed)", "1%"]
]}

* * *

biological target: HLA-A2402 (Homo sapiens, UniProt P04439, D101N/D140Y/D185E/E176V/E190D/F33S/G103R/G107R/I119L/I121M/I306V/K335N/L105A/L180Q/L300P/N151K/N90K/Q86E/Q94H/R106L/R138H/R89G/T104I/T345S/V100E/W191G/Y123F); experiment: cell-based; format: binding; conditions: HLA-A2402 HMy2.CIR cells; competitor peptide 5μM; 24 hours; flow cytometry
Residues, ends and D or L forms follow the SMILES beside them.

{"columns": ["molecule", "inhibition at 5 µM"],
 "data": [
  ["CC[C@H](C)[C@H](NC(=O)[C@H](CC(C)C)NC(=O)[C@@H](N)CCCCN)C(=O)NCC(=O)N[C@H](C(=O)N[C@@H](CC(=O)O)C(=O)N[C@@H](CC(N)=O)C(=O)N[C@@H](CO)C(=O)N[C@H](C(=O)O)C(C)C)[C@@H](C)O [Epitope P34] (H-KLIGTDNSV-OH; N-terminus and C-terminus assumed)", "11.4%"],
  ["CC[C@H](C)[C@H](NC(=O)[C@H](CC(C)C)NC(=O)[C@H](CS)NC(=O)[C@H](CC(C)C)NC(=O)[C@H](CC(C)C)NC(=O)[C@H](CC(C)C)NC(=O)[C@@H](NC(=O)[C@H](Cc1ccccc1)NC(=O)[C@@H](N)CC(C)C)[C@@H](C)CC)C(=O)O [Epitope P20] (H-LFILLLCLI-OH; N-terminus and C-terminus assumed)", "0.9%"],
  ["CSCC[C@H](NC(=O)[C@@H](N)CCSC)C(=O)N[C@@H](Cc1c[nH]c2ccccc12)C(=O)N[C@@H](Cc1ccc(O)cc1)C(=O)N[C@@H](Cc1c[nH]c2ccccc12)C(=O)NCC(=O)N1CCC[C@H]1C(=O)N[C@@H](CO)C(=O)N[C@@H](CC(C)C)C(=O)N[C@@H](Cc1ccc(O)cc1)C(=O)O [Epitope P108]", "4.5%"]
]}
